System: skeletal muscle cells
Experiment: LIVE/DEAD calcein/ethidium bromide assay, muscle cell kill rate
Assay type: cell-based, human
Conditions: kill rate (ethidium); same plate as adipocytes
The recorded Muscle, averaged ethidium numbers of each item maps onto one of these classes: low-valued = under 20, mid-valued = from 20 up to 70, high-valued = 70 and over

{"columns": ["structureNotation", "label"],
 "data": [
  ["O=Cc1c[nH]c2cc(OCc3ccccc3)ccc12", "high-valued"],
  ["O=Cc1c[nH]c2c3c(ccc12)CCC3", "high-valued"],
  ["O=Cc1cc2ccccc2[nH]1", "high-valued"],
  ["O=Cc1ccc2[nH]ccc2c1", "mid-valued"],
  ["O=C(O)[C@H]1Cc2c([nH]c3ccccc23)[C@@H](c2ccc(O)cc2O)N1", "low-valued"],
  ["O=C(O)c1cc2ccccc2[nH]1", "low-valued"],
  ["O=Cc1c[nH]c2cccc(OCc3ccccc3)c12", "high-valued"],
  ["O=C(O)CCCc1c[nH]c2ccccc12", "low-valued"],
  ["O=Cc1cccc2[nH]ccc12", "mid-valued"],
  ["c1ccc2[nH]ccc2c1", "low-valued"]
]}

====

Tested on: adipocytes
Experiment: LIVE/DEAD calcein/ethidium bromide assay, adipocyte kill rate
Type: cell-based, human
Settings: kill rate (ethidium); all tissue types on the same plate
measurementKind: Adipocyte, averaged ethidium numbers

{"columns": ["compound", "assayedSystem", "measurementKind", "number"],
 "data": [
  ["O=Cc1c[nH]c2cc(OCc3ccccc3)ccc12 [Compound 44, 6-(benzyloxy)-1H-indole-3-carbaldehyde]", "adipocytes", "Adipocyte, averaged ethidium numbers", 218],
  ["O=C(O)CCCc1c[nH]c2ccccc12 [Compound 10, 4-(1H-indol-3-yl) butanoic acid]", "adipocytes", "Adipocyte, averaged ethidium numbers", 45],
  ["O=Cc1cccc2[nH]ccc12 [Compound 5, 1H-indole-4-carbaldehyde]", "adipocytes", "Adipocyte, averaged ethidium numbers", 36],
  ["Brc1ccc2[nH]ccc2c1 [Compound 38, 5-bromo-1H-indole]", "adipocytes", "Adipocyte, averaged ethidium numbers", 558],
  ["O=Cc1cccc2cc[nH]c12 [Compound 4, 1H-indole-7-carbaldehyde]", "adipocytes", "Adipocyte, averaged ethidium numbers", 127],
  ["O=Cc1c[nH]c2ccccc12 [Compound 1, 1H-indole-3-carbaldehyde]", "adipocytes", "Adipocyte, averaged ethidium numbers", 53],
  ["O=Cc1ccc2[nH]ccc2c1 [Compound 3, 1H-indole-5-carbaldehyde]", "adipocytes", "Adipocyte, averaged ethidium numbers", 42.5],
  ["O=C(O)c1cc2ccccc2[nH]1 [Compound 29, 1H-indole-2-carboxylic acid]", "adipocytes", "Adipocyte, averaged ethidium numbers", 83]
]}

The measurements presented in this section are drawn from patent US10653670B2.
